Each entry below carries its recorded pKi.
# tested.on: 5-hydroxytryptamine receptor 3A (Mus musculus)
# Sequence (P23979 whole entry): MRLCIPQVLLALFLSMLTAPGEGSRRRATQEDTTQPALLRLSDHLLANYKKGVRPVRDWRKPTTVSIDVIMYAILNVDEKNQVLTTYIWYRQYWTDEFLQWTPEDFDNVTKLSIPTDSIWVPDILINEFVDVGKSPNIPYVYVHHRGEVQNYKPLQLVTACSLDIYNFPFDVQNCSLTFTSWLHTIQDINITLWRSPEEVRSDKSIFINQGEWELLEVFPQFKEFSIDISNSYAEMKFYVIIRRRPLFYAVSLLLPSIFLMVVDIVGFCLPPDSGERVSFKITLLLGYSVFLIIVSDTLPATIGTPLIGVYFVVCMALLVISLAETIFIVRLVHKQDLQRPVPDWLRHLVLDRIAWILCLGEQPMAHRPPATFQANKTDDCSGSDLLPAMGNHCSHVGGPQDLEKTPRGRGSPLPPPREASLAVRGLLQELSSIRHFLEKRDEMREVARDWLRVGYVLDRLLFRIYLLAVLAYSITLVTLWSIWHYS
pKi: −log10 of the molar value.
quantity: pKi

[[record]]
compound = "C[C@H](N)Cc1ccccc1 [beta-aminopropylbenzene]"
result = "< 5.00"

[[record]]
compound = "COc1ccccc1N1CCN(CCCCN2C(=O)c3ccccc3C2=O)CC1"
result = "< 5.00"

[[record]]
compound = "CN1C2CCC1CC(OC(=O)c1c[nH]c3ccccc13)C2 (stereo not given)"
result = 9.30

[[record]]
compound = "Cc1nccn1CC1CCc2c(c3ccccc3n2C)C1=O (stereo not given) [NSC_68647]"
result = 7.82

[[record]]
compound = "CN(C)CCCN1c2ccccc2CCc2ccccc21"
result = 5.44

[[record]]
compound = "N[C@@H]1C[C@H]1c1ccccc1 [Tranylcypromine,(+)]"
result = "< 5.00"

[[record]]
compound = "COC(=O)[C@@H](c1ccccc1)[C@@H]1CCCCN1"
result = "< 5.00"

[[record]]
compound = "CN[C@@H](C)Cc1ccccc1 [METHAMPHETAMINE (+)]"
result = "< 5.00"

[[record]]
compound = "O=C(c1ccc(F)cc1)C1CCN(CCn2c(=O)[nH]c3ccccc3c2=O)CC1"
result = "< 5.00"

[[record]]
compound = "CCN1CCCC1CNC(=O)c1cc(S(N)(=O)=O)ccc1OC (stereo not given)"
result = "< 5.00"


====

# tested.on: 5-hydroxytryptamine receptor 2C (Rattus norvegicus)
# Sequence (P08909 whole entry): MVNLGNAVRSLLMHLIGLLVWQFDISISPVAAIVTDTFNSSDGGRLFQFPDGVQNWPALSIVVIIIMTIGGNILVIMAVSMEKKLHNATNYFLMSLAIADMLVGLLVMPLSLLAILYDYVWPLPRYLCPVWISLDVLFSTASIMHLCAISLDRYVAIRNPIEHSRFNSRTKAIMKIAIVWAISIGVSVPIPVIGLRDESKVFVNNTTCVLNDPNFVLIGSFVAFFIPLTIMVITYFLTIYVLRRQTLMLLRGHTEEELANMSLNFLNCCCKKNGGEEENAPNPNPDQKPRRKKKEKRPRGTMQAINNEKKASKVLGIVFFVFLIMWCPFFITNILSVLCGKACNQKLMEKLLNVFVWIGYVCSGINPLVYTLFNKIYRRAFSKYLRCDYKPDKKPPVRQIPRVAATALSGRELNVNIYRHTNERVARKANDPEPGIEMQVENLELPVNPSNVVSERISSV
quantity: Ki (nM)

[[record]]
smiles_str = "CNCCCN1c2ccccc2CCc2ccccc21"
readout_number = 748

[[record]]
smiles_str = "CN1CCc2cccc3c2[C@H]1Cc1ccc(O)c(O)c1-3"
readout_number = 1100

[[record]]
smiles_str = "CC(C)(C)[C@]1(O)CCN2C[C@H]3c4ccccc4CCc4cccc(c43)[C@@H]2C1"
readout_number = 1060

[[record]]
smiles_str = "Oc1cc2c(c(Cl)c1O)CCNC[C@@H]2c1ccccc1"
readout_number = 1510

[[record]]
smiles_str = "Cc1[nH]c2ccc(O)cc2c1CCN"
readout_number = 1370

